These data points were gathered from paper PMC10584170.

# Tested on: P. falciparum male gametocytes
# ASSAY_INFO: P. falciparum Dual Gamete Formation Assay (PfDGFA), male readout (exflagellation)
# Assay type: cell-based, Plasmodium falciparum NF54
# PROTOCOL_CONDITIONS: PfDGFA at 2µM, 24h preincubation; average of replicates
Average inhibition male (%) overview
Write it as a number; the unit % goes unstated.

Some solved entries appear below for comparison.
input: Average inhibition male (%) for COCCOc1nc(N)nc2ncc(Cc3cc(OC)ccc3OC)c(C)c12 ?
output: 25.9

input: Note, next up: COc1cccc2c(O)c(CNC3CCCCC3)ccc12.Cl
output: 3.3

input: Also, CC(=O)Nc1cccc(Nc2nccc(-c3c(-c4cccc(NC(=O)c5c(F)cccc5F)c4)nn4ncccc34)n2)c1 please.
output: 8.8

input: Queued: COc1ccc(C(=O)Nc2cc(Cl)c3c(c2)C2CCCN2CC3)cc1C(F)(F)F.Cl (centres unmarked)
output: 13.2

input: What do you get for Br.c1cc(C2=NC3CCCCC3N2)ccc1OCCCCCOc1ccc(C2=NC3CCCCC3N2)cc1 (centres unmarked) ?
output: -1.7

Others:
input: Look up Average inhibition male (%) for this compound: COc1ccc(N(C)Cc2cnc3nc(N)nc(N)c3n2)cc1
output: 5.0

input: Can you handle Cc1ccc2cc(NC(=O)CCCCCCCON3C(N)=NC(N)=NC34CCCCC4)ccc2n1.O=C(O)C(F)(F)F next?
output: -24.7

input: Thanks! And O=C(Nc1ccc([N+](=O)[O-])cc1)c1nn(-c2ccccc2)cc1/N=C/c1cccc(O)c1 ?
output: -10.2

----------
# Test system: P. falciparum male gametocytes
# ASSAY_INFO: P. falciparum Dual Gamete Formation Assay (PfDGFA), male readout (exflagellation)
# Type: cell-based, Plasmodium falciparum NF54
# PROTOCOL_CONDITIONS: PfDGFA at 2µM, 24h preincubation; average of replicates
ATTRIBUTE_MEASURED: Average inhibition male (%)
Answer in %, number only, no unit symbol.

Answered cases to consult:
input: For the compound Cl.Nc1nc(N)c2c(ccc3nn(S(=O)(=O)N4CCCC4)cc32)n1 [TCMDC-137854] , what Average inhibition male (%) is on record?
output: 33.2

input: Item: Nc1nc(Cc2ccc(Cl)cc2)nc(Cc2ccc(Cl)cc2)n1 [TCMDC-137497]
output: -26.4

input: Another compound: Cl.NC1=NC(CCc2ccccc2)N(c2ccc(Cl)cc2)C(N)=N1 (centres unmarked) [TCMDC-131290]
output: -16.9

input: Similarly, COc1ccccc1CNc1ccnc(N2CC(Oc3ccc(F)cc3)C2)n1 [TCMDC-135118] ?
output: 10.3

Others:
input: Please give the measured Average inhibition male (%) for this compound: CCc1c(CCNCCCCCCNCCc2ccc(Br)cc2)ccc(OC)c1OC.Cl [TCMDC-132045]
output: 10.8

input: Input COc1ccc(C2CC(c3cccs3)=NN2C(=O)c2ccccc2)cc1OC (centres unmarked) [TCMDC-123755]
output: 0.438

input: Please give the result for CCCC(CCC)n1ccc2c3c(N)nc(N)nc3ccc21.Cl [TCMDC-137949] too.
output: 0.9

input: Field entry: N#CCSc1nnc(-c2ccccc2)c2ccccc12 [TCMDC-123867]
output: 1.3

----------
Measured inhibition at 2 µM, listed per entry.
# Tested on: P. falciparum male gametocytes
# ASSAY_INFO: P. falciparum Dual Gamete Formation Assay (PfDGFA), male readout (exflagellation)
# Assay type: cell-based, Plasmodium falciparum NF54
# PROTOCOL_CONDITIONS: Plasmodium falciparum; PfDGFA at 2µM, 24h preincubation with gametocytes; replicate R1; read-out: % inhibition male (individual replicates) R1
# Protocol: […] The Pf DGFA was performed as described in Delves et al. 2016 [17]. […] Exflagellation was recorded by capturing 10 frames over 1 s under brightfield illumination using a x4 objective with a 1.5x zoom (effectively x6) attached to an automated Nikon Ti fluorescence microscope. […] The plates were then returned to the microscope and female gametes imaged at x6 using fluorescence microscopy. […]
# value in %; strip the unit string

Examples with answers:
input: I would be grateful if you could share the reported inhibition at 2 µM for CNC(=O)c1cnc(Nc2ccc(N3CCN(C)CC3)cc2)nc1Nc1ccccc1OC.O=C(O)C(F)(F)F [TCMDC-141382] .
output: 83.2

input: Can you handle COCCn1c(Sc2ncnc3sccc23)nc2ccccc21 [TCMDC-125258] next?
output: 86.4

Next:
input: // query inhibition at 2 µM value for entry CC(C)(CN)c1nc(-c2ccc(Br)c(O)c2)c(-c2ccncc2)[nH]1.Cl [TCMDC-140680]
output: 55.5

input: Proceed to Cn1c(Sc2ncnc3sccc23)nc2ccccc21 [TCMDC-124514]
output: 82.1

input: Entry FC(F)(F)c1ccc2[nH]c(-c3ccc(-c4ccc(CNCCN5CCNCC5)cc4)cc3)nc2c1.O=C(O)C(F)(F)F [TCMDC-132865] please
output: 60.9

----------
# Test system: HepG2 cells
# ASSAY_INFO: HepG2 cytotoxicity counter-screen
# PROTOCOL_CONDITIONS: cytotoxic activity against HepG2 cells
ATTRIBUTE_MEASURED: Tox50 (µM)
Just the number in µM, nothing appended.

Below are worked cases with known answers.
input: # Tox50 lookup, item Fc1ccc2[nH]c(-c3ccc(-c4ccc(CNCCN5CCNCC5)cc4)cc3)nc2c1.O=C(O)C(F)(F)F
output: 28.84

input: Also check CC(Cc1ccc(C(=O)Nc2ccc(CC(C)NCCc3cccc(Cl)c3)cc2)cc1)NCCc1ccc(C(F)(F)F)cc1 (stereo not shown)
output: 3.76

input: Try this compound too: COc1ccc2nc(N=C3NC4(c5ccccc5)NC(=Nc5nc6ccc(OC)cc6[nH]5)NC4(c4ccccc4)N3)[nH]c2c1.O=C(O)C(F)(F)F (stereo not shown)
output: 33.52

input: Likewise for c1ccc(-c2nc(Nc3nc4ccccc4[nH]3)[nH]c2-c2ccccc2)cc1 ?
output: 16.22

input: And for CNC(=O)c1ccccc1Nc1nc(Nc2ccc(N3CCOCC3)cc2)ncc1Cl.Cl ?
output: 0.82

Proceed to the following item.
input: Requested read-out: Tox50. Entry: O=C(c1ccc([N+](=O)[O-])o1)N1CCC(Cc2ccc(C(F)(F)F)cc2)CC1
output: 28.45

----------
Item-by-item account of Selectivity Ratio M
# Test system: P. falciparum male gametocytes
# ASSAY_INFO: P. falciparum Dual Gamete Formation Assay (PfDGFA), male readout (exflagellation)
# Assay type: cell-based, Plasmodium falciparum NF54
# PROTOCOL_CONDITIONS: HepG2 Tox50 versus male IC50
Simply state the number, no unit and no words.

As a guide, the following entries are already answered.
input: Would you mind telling me what Selectivity Ratio M value was observed for Cc1ccc(C(C(=O)Nc2ccc(N3CCNCC3)c(Cl)c2)c2ccccc2)cc1 (stereo not shown) ?
output: 27.18

input: Request: CN1CCC(N2CCN(Cc3cccc(-c4ccc(-c5nc6cc(C(F)(F)F)ccc6[nH]5)cc4)c3)CC2)CC1.O=C(O)C(F)(F)F
output: 3.46

input: // same read-out, input: Cc1ccc(-n2c(Sc3ncnc4sccc34)nnc2N2CCCC2)cc1
output: 192.28

input: Request: Fc1ccc2[nH]c(-c3ccc(-c4ccc(CN5CCC(CCN6CCCCC6)CC5)cc4)s3)nc2c1.O=C(O)C(F)(F)F
output: 3.55

input: Similarly, COc1ccc(-c2cnc(N)c(-c3ccc(C(N)=O)cc3)c2)cc1OC ?
output: 54.05

input: Same question for CCc1c(CCNCCCCCCNC(C)(C)Cc2ccc3c(c2CC)OCO3)ccc(OC)c1OC.Cl please.
output: 2.57

input: Next: C=CC(C)C1OC(=O)c2cc(OC)cc(OC)c21 (stereo not shown)
output: 2.76

input: Further, for CCCC(N)C(=O)NC1CCN(c2c(F)c(N)c3c(=O)c(C(=O)O)cn4c3c2Oc2ccccc2-4)C1.Cl (stereo not shown) ?
output: 2.29

input: Continue with CC(C)(CN)c1nc(-c2ccc(Br)c(O)c2)c(-c2ccncc2)[nH]1.Cl
output: 67.46

input: Cool, now CC(=NNC(=S)NCCc1ccccn1)c1ccccn1
output: 2.92

# input for lookup
input: Name the recorded Selectivity Ratio M for CC(C)S(=O)(=O)N1CCN(Cc2ccc3c(c2)nc(NC(=O)c2ccsc2)n3C[C@H](O)c2ccccc2)CC1 .
output: 20.83

----------
Entries and their IC50 values follow.
# Tested on: P. falciparum male gametocytes
# ASSAY_INFO: P. falciparum Dual Gamete Formation Assay (PfDGFA), male readout (exflagellation)
# Type: cell-based, Plasmodium falciparum NF54
# PROTOCOL_CONDITIONS: Plasmodium falciparum; PfDGFA, 24 h incubation with gametocytes before induction, exflagellation readout; read-out: Male IC50
Please reply with the bare figure in nM and do not write the unit itself.

Here are 6 molecules together with their reported answers.
input: Recorded IC50 for O=C1Nc2ccccc2C1=NNC(=S)N1CCOCC1 , please?
output: 940

input: Moving on to the next molecule: Cl.O=C1Nc2ccc3ncccc3c2/C1=C/Nc1ccc(N2CCN(CCO)CC2)cc1
output: 150

input: Now try C#C[C@H]1O[C@@H](n2cnc3c(Nc4cc(Br)cc(C(F)(F)F)c4)ncnc32)[C@H](O)[C@@H]1O .
output: 300

input: Same thing, different molecule: COc1ccc2nc3cc(Cl)ccc3c(NCCCCNc3c4ccc(Cl)cc4nc4ccc(OC)cc34)c2c1
output: 380

input: Now try Cc1sc2ncnc(Sc3nnc(N)s3)c2c1C .
output: 1410

input: Now the molecule FC(F)(F)c1cccc(NC(=S)NN=Cc2ccccn2)c1
output: 700

New cases:
input: Give its IC50 value. Item: CS(=O)(=O)Cc1ccc(Nc2ncc(Cl)c(Nc3cccnc3C(N)=O)n2)cc1.Cl
output: 6250

input: Follow-up entry: O=C(NC1CCN(Cc2ccccc2)CC1)c1cc(C(=O)NC2CCN(Cc3ccccc3)CC2)cc(C(=O)NC2CCN(Cc3ccccc3)CC2)c1
output: 7710
